biological target: ATDGDP-L-BD (Homo sapiens, UniProt P51531-2 1358-1490, R1368D;R1370D); assay: NMR
ENDPOINT_LABEL: pKd
Numbers only, as −log10 of the molar value.

Problem: Give recorded pKd. 10 bp NMR dsDNA (dsDNA) DNA 1: CTCAATTGGT DNA 2: ACCAATTGAG
Result: 3.39

Data origin, for the record: paper PMC8184587
